Hey, just so you know, these numbers are from patent US11395857B2.

Measured tissue uptake at 120 h accompanies every entry in the list below.
# protocol: Biodistribution of 177Lu-labeled αMSH analogues in mice bearing B16F10 mouse melanoma
# Type: in vivo, C57BL/6J mice
# condition_label: mouse, fat, iv, total radioactivity; 120 h p.i., C57BL/6J mice, B16F10 melanoma; read-out: Biodistribution, Fat
Hi! Could you send only the number? It should be in %ID/g, unit omitted.

Please report the recorded tissue uptake at 120 h for CCCC[C@H](NC(=O)CN1CCC(NC(=O)[C@H](CCCCNC(=O)CN2CCN(CC(=O)O)CCN(CC(=O)O)CCN(CC(=O)O)CC2)NC(=O)[C@H](CCC(=O)O)NC(=O)CCCc2ccc(I)cc2)CC1)C(=O)N[C@H]1CC(=O)NCCCC[C@@H](C(N)=O)N(C)C(=O)[C@H](Cc2c[nH]c3ccccc23)NC(=O)[C@H](CCCNC(=N)N)N(C)C(=O)[C@@H](Cc2ccccc2)NC(=O)[C@H](Cc2c[nH]cn2)NC1=O [^177Lu-labeled CCZ01118, metal not drawn] . 0.02
